# target_desc: T1, human PRLR (Biacore antigen) (human, UniProt P16471 25-234, limits assumed)
# T1 construct: The construct injected over captured antibody is not described (a soluble form is likely); also called huPRLR
# T1 sequence: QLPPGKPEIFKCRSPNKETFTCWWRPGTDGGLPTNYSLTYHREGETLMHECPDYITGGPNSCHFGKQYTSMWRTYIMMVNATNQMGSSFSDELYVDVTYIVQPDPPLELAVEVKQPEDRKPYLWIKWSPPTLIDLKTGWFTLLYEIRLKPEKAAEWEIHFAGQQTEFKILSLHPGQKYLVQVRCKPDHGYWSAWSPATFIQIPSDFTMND
# assay_text: SPR Biacore
# log10(koff) values compiled below
The common logarithm of koff in s⁻¹ is what is listed.

| binder | observed_measurement |
| --- | --- |
| chAb5 (antibody, human IgG1, kappa, V domains shown, chimeric, murine variable and human G1/kappa constant regions) VH: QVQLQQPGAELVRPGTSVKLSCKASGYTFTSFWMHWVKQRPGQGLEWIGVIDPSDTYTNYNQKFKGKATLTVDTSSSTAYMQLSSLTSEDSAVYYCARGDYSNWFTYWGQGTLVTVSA VL: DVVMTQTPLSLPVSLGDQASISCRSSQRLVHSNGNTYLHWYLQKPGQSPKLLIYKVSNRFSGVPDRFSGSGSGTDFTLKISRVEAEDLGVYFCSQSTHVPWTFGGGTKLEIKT | -3.70 |

Query :: Which value of log10(koff) has been reported for Ab18 (antibody, human IgG1, kappa, V domains shown, humanized from Ab6; G1; also called Ab1 HC.1a and Ab1 LC.1) VH: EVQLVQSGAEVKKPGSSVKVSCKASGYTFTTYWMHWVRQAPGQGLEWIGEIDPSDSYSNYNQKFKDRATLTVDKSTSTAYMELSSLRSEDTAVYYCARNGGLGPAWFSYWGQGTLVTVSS VL: DIQMTQSPSSVSASVGDRVTITCKASQYVGTAVAWYQQKPGKAPKLLIYSASNRYTGVPSRFSGSGSGTDFTLTISSLQPEDFATYYCQQYSSYPWTFGGGTKVEIKR in the records?
Result :: -2.77

Query :: What do we get for Ab48 (antibody, human IgG1, kappa, V domains shown, humanized from Ab8; G1; also called Ab3 HC.1a and Ab3 LC.1a) VH: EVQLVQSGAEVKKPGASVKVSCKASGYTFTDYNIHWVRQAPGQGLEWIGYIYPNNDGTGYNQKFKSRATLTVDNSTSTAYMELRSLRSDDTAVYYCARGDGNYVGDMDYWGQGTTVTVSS VL: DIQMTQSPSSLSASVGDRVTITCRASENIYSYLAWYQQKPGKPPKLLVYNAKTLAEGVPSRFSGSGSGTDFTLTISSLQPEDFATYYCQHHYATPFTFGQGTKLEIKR ?
Result :: -4.01

Query :: How about chAb6 (antibody, human IgG1, kappa, V domains shown, chimeric, murine variable and human G1/kappa constant regions) VH: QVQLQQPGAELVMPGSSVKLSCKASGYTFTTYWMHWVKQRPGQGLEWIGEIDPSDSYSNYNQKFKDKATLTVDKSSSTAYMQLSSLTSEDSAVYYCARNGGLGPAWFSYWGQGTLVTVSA VL: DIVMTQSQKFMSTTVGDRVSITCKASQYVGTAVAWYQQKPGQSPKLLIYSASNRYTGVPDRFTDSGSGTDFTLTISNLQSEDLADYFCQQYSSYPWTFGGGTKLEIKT ?
Result :: -3.27

Query :: Then Ab14 (antibody, human IgG1, kappa, V domains shown, humanized from Ab6; G1; also called Ab1 HC.1 & Ab1 LC.1) VH: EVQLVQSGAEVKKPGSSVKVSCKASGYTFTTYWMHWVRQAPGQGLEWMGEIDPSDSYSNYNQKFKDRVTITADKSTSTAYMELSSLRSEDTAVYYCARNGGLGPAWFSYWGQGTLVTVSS VL: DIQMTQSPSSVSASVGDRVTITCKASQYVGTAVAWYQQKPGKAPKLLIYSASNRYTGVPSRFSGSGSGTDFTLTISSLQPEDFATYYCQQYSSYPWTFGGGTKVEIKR ?
Result :: -2.34

Query :: Also check chAb7 (antibody, human IgG1, kappa, V domains shown, chimeric, murine variable and human G1/kappa constant regions) VH: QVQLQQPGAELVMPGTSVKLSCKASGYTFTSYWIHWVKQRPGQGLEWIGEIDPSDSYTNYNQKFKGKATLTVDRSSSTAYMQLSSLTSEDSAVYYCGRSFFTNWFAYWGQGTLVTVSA VL: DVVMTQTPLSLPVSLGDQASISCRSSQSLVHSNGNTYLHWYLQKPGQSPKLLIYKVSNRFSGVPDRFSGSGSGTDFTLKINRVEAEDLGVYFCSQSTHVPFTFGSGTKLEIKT
Result :: -4.35

Query :: Repeat with Ab15 (antibody, human IgG1, kappa, V domains shown, humanized from Ab6; G1; also called Ab1 HC.1 and Ab1 LC.1a) VH: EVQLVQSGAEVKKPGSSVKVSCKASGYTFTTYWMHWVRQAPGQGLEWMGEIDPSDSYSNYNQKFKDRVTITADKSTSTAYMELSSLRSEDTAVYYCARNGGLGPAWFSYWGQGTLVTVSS VL: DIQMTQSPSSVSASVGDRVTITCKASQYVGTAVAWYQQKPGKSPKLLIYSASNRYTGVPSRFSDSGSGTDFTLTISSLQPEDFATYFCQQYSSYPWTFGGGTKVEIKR
Result :: -3.01

Query :: And Ab19 (antibody, human IgG1, kappa, V domains shown, humanized from Ab6; G1; also called Ab1 HC.1a and Ab1 LC.1a) VH: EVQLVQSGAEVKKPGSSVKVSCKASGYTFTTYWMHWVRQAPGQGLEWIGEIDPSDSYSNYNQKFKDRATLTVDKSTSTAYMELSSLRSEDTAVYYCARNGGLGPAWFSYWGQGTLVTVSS VL: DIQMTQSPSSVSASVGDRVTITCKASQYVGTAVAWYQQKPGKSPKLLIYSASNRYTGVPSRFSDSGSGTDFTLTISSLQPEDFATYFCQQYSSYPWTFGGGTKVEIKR ?
Result :: -3.39

Query :: Can you handle Ab10 (antibody, V domains shown, murine monoclonal, isotype G2a; also called murine Ab10) VH: EVQLHQSGPELVKPGASVKISCKASGYTFTDYNMHWMKQSHGKSLEWIGYFYPYNGGTGYNQEFKNKATLTVDISSSTAYMELRRLTSEDSAVYYCARGGWGIYYAMDYWGQGTSVTVSS VL: DIQMTQSPASLSASVGETVTITCRASENIYSYLTWYQQKQGKSPQLLVYNAKTLAEGVPSRFSGSGSGTQFSLKINSLQPEDFGSYHCQHHSVTPLTFGAGTKLELK next?
Result :: -3.64

Query :: For Ab27 (antibody, human IgG1, kappa, V domains shown, humanized from Ab5; G1; also called Ab2 HC.1 and Ab2 LC.1a) VH: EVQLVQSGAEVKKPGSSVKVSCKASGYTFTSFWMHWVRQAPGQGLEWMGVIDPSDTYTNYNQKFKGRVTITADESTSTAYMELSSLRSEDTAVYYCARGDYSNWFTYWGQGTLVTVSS VL: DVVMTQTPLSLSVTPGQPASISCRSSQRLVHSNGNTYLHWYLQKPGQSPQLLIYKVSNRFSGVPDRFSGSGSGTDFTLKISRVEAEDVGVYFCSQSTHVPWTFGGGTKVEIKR then?
Result :: -3.35
